Target: HIV-1 protease (Q7S mutant form) (Human immunodeficiency virus type 1 group M subtype B, UniProt P04585, Q495S)
Construct: made in house
Assay: HIV-1 Protease RET assay
Type: biochemical
Settings: Ave. Ki (nM), RET assay, Q7S enzyme, Morrison tight binding fit
Recorded Ki values for a group of compounds are listed next.
Express your answer in nM, writing the number without its unit.

# count of solved cases: 8
- C=CCNC(=O)[C@H]1N(C(=O)[C@@H](O)[C@H](Cc2ccccc2)NC(=O)COc2c(C)cccc2C)CSC1(C)C [Example B23]: 0.15
- Cc1ccc(F)cc1CNC(=O)[C@@H]1CC(F)(F)CN1C(=O)[C@@H](O)[C@H](Cc1ccccc1)NC(=O)c1cccc(O)c1C [Example C6]: 2.4
- CC1(C)SCN(C(=O)[C@@H](O)[C@H](Cc2ccccc2)NC(=O)c2cccc3c2CCN3)[C@@H]1C(=O)NCC1CC1 [Example B28]: 4.2
- Cc1c(O)cccc1C(=O)N[C@@H](Cc1ccccc1)[C@H](O)C(=O)N1CSC(C)(C)[C@H]1C(=O)N1CCSCC1 [Example A33]: 5.1
- Cc1c(O)cccc1C(=O)N[C@@H](Cc1ccccc1)[C@H](O)C(=O)N1CSC(C)(C)[C@H]1C(=O)NCC1CC1 [Example A20]: 0.16
- Cc1c(O)cccc1C(=O)N[C@@H](Cc1ccccc1)[C@H](O)C(=O)N1CSC(C)(C)[C@H]1C(=O)N1CCOCC1 [Example A30]: 10.9
- Cc1ccccc1C(=O)N[C@@H](Cc1ccccc1)[C@H](O)C(=O)N1CSC(C)(C)[C@H]1C(=O)N[C@@H]1C=CCCC1 [Example B80]: 0.15
- Cc1c(O)cccc1C(=O)N[C@@H](Cc1ccccc1)[C@H](O)C(=O)N1CSC(C)(C)[C@H]1C(=O)NCc1cccnc1 [Example A5]: 0.2

Okay, now this compound:
IN: What value of Ki has been reported for the following compound? COc1ccc(CNC(=O)N[C@@H](Cc2ccccc2)[C@H](O)C(=O)N2CSC(C)(C)[C@H]2C(=O)NCc2ccccc2C)cc1OC [Example B74]
OUT: 39
